experimentNotes: Viability of fibroblast cells, MTT assay
Assay type: cell-based, Human
appliedConditions: human, primary dermal fibroblast cells; 1 µmol/L, 24 h, MTT; ± 2; read-out: Viability of fibroblast cells
reportedEndpoint: viability at 24 h, 1 µmol/L (%)
One number for each entry, in %.

Previously resolved entries follow.
substance="Ac-RTTRS-NH2 [Peptide 22, Ac-Arg-Thr-Thr-Arg-Ser-NH2]" assayresult=102
substance="Ac-RTTKS-NH2 [Peptide 30, Ac-Arg-Thr-Thr-Lys-Ser- NH2]" assayresult=95
substance="H-RTTRS-OH [Peptide 17, H-Arg-Thr-Thr-Arg-Ser-OH]" assayresult=89
substance="Ac-KTTKS-OH [Peptide 2, Ac-Lys-Thr-Thr-Lys-Ser-OH]" assayresult=98
substance="H-KTTKS-NH2 [Peptide 5, H-Lys-Thr-Thr-Lys-Ser-NH2]" assayresult=91

Field: next substance
**Query** If you can, please state the reported viability at 24 h, 1 µmol/L value of Ac-RTTKS-OH [Peptide 26, Ac-Arg-Thr-Thr-Lys-Ser-OH] .
**Result** 112

----------
Record form. Attribute: viability at 24 h, 100 µmol/L. Fill in for each entry.
experimentNotes: Viability of fibroblast cells, MTT assay
Type: cell-based, Human
appliedConditions: human, primary dermal fibroblast cells; 100 µmol/L, 24 h, MTT; ± 2; read-out: Viability of fibroblast cells
One number for each entry, in %.

The examples below pair each entry with its known result.
substance="Ac-RTTRS-NH2 [Peptide 22, Ac-Arg-Thr-Thr-Arg-Ser-NH2]" assayresult=101
substance="Ac-KTTRS-OH [Peptide 10, Ac-Lys-Thr-Thr-Arg-Ser-OH]" assayresult=94
substance="H-RTTRS-NH2 [Peptide 21, H-Arg-Thr-Thr-Arg-Ser-NH2]" assayresult=103
substance="Ac-KTTKS-OH [Peptide 2, Ac-Lys-Thr-Thr-Lys-Ser-OH]" assayresult=82
substance="H-RTTKS-NH2 [Peptide 29, H-Arg-Thr-Thr-Lys-Ser-NH2]" assayresult=110
substance="Ac-KTTKS-NH2 [Peptide 6, Ac-Lys-Thr-Thr-Lys-Ser-NH2]" assayresult=86

# map each substance to its viability at 24 h, 100 µmol/L
1. H-KTTRS-NH2 [Peptide 13, H-Lys-Thr-Thr-Arg-Ser-NH2]
2. Ac-RTTKS-NH2 [Peptide 30, Ac-Arg-Thr-Thr-Lys-Ser- NH2]
3. H-KTTKS-OH [Peptide 1, H-Lys-Thr-Thr-Lys-Ser-OH, reference compound]

**Result**
1. 145
2. 101
3. 80

----------
assayedTarget: plasmin (Homo sapiens)
Construct: purchased Chromogenix (Milano, Italy)
Sequence (P00747 581-810 limits assumed): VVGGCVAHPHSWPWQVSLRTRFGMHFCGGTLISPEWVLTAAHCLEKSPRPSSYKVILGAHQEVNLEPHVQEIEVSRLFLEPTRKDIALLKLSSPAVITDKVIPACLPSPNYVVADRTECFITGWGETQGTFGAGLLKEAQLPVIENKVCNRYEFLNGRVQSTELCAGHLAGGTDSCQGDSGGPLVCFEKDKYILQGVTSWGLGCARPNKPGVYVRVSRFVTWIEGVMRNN
Sequence (P00747 97-580 partner limits assumed): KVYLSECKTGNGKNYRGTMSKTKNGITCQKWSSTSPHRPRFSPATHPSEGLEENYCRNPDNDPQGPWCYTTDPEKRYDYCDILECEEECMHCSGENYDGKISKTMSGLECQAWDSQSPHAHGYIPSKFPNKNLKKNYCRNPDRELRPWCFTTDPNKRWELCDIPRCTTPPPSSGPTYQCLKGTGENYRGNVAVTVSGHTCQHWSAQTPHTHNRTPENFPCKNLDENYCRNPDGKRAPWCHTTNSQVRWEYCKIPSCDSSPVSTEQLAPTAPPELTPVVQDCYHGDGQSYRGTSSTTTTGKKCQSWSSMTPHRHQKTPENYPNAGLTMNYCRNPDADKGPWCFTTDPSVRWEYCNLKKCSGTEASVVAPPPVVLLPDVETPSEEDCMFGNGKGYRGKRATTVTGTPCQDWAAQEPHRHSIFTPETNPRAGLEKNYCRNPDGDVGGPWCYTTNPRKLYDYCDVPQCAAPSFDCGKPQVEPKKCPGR
experimentNotes: Amidolytic activity of plasmin (chromogenic substrate H-D-Val-Leu-Lys-pNA)
Assay type: biochemical
appliedConditions: amidolytic activity; Tris pH 7.4, 37 °C; IC50 by extrapolation using a linear plot; error 5%; read-out: IC50 Plasmin
reportedEndpoint: log10(IC50) (log10 of the value in µM)
A difference of one corresponds to tenfold IC50; all values are log10 with IC50 in µM.

Answered cases to consult:
compound="C[C@@H](O)[C@H](NC(=O)[C@H](CCCNC(=N)N)NC(=O)CCCCC1CCSS1)C(=O)N[C@H](C(=O)N[C@@H](CCCNC(=N)N)C(=O)N[C@@H](CO)C(N)=O)[C@@H](C)O (mixture of isomers) [Peptide 23, Lip-Arg-Thr-Thr-Arg-Ser-NH2]" assayresult=3.28
compound="C[C@@H](O)[C@H](NC(=O)[C@H](CCCCN)NC(=O)CCCCC1CCSS1)C(=O)N[C@H](C(=O)N[C@@H](CCCNC(=N)N)C(=O)N[C@@H](CO)C(N)=O)[C@@H](C)O (mixture of isomers) [Peptide 15, Lip-Lys-Thr-Thr-Arg-Ser-NH2]" assayresult=2.84
compound="C[C@@H](O)[C@H](NC(=O)[C@H](CCCCN)NC(=O)CCCCC1CCSS1)C(=O)N[C@H](C(=O)N[C@@H](CCCNC(=N)N)C(=O)N[C@@H](CO)C(=O)O)[C@@H](C)O (mixture of isomers) [Peptide 11, Lip-Lys-Thr-Thr-Arg-Ser-OH]" assayresult=2.38
compound="C[C@@H](O)[C@H](NC(=O)[C@H](CCCNC(=N)N)NC(=O)CCCCC1CCSS1)C(=O)N[C@H](C(=O)N[C@@H](CCCCN)C(=O)N[C@@H](CO)C(N)=O)[C@@H](C)O (mixture of isomers) [Peptide 31, Lip-Arg-Thr-Thr-Lys-Ser- NH2]" assayresult=3.51
compound="C[C@@H](O)[C@H](NC(=O)[C@H](CCCCN)NC(=O)CCCCC1CCSS1)C(=O)N[C@H](C(=O)N[C@@H](CCCCN)C(=O)N[C@@H](CO)C(N)=O)[C@@H](C)O (mixture of isomers) [Peptide 7, Lip-Lys-Thr-Thr-Lys-Ser-NH2]" assayresult=2.76
compound="C[C@@H](O)[C@H](NC(=O)[C@H](CCCNC(=N)N)NC(=O)CCCCC1CCSS1)C(=O)N[C@H](C(=O)N[C@@H](CCCNC(=N)N)C(=O)N[C@@H](CO)C(=O)O)[C@@H](C)O (mixture of isomers) [Peptide 19, Lip-Arg-Thr-Thr-Arg-Ser-OH]" assayresult=3.00
compound="C[C@@H](O)[C@H](NC(=O)[C@H](CCCNC(=N)N)NC(=O)CCCCC1CCSS1)C(=O)N[C@H](C(=O)N[C@@H](CCCCN)C(=O)N[C@@H](CO)C(=O)O)[C@@H](C)O (mixture of isomers) [Peptide 27, Lip-Arg-Thr-Thr-Lys-Ser-OH]" assayresult=3.33

Consider the record given below.
**Query** What log10(IC50) value was documented for this compound, C[C@@H](O)[C@H](NC(=O)[C@H](CCCCN)NC(=O)CCCCC1CCSS1)C(=O)N[C@H](C(=O)N[C@@H](CCCCN)C(=O)N[C@@H](CO)C(=O)O)[C@@H](C)O (mixture of isomers) [Peptide 3, Lip-Lys-Thr-Thr-Lys-Ser-OH] ?
**Result** 2.67
